Target: Cysteinyl leukotriene receptor 1 (Cavia porcellus, UniProt Q2NNR5)
Sequence (Q2NNR5 whole entry): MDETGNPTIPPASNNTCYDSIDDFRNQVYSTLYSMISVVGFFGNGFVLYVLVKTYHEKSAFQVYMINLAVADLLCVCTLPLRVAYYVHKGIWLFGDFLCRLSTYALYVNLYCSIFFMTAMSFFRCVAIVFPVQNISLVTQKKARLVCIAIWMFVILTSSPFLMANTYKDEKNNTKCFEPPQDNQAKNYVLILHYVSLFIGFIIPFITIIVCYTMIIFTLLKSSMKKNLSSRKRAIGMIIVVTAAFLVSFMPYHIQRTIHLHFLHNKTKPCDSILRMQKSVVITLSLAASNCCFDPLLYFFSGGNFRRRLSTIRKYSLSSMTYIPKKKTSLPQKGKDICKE
QUANTITY KIND: Ki (nM)

COc1cc(C(=O)NS(=O)(=O)c2ccccc2Cl)ccc1Cn1cc(C)c2ccc(C(=O)NCC(C)CC(F)(F)F)cc21 (centres undefined)    4.9

1. COc1cc(C(=O)NS(=O)(=O)c2ccccc2C)ccc1Cc1cn(C)c2ccc(C(=O)NCC(C)(C)CC(F)(F)F)cc12
2. CCC(CNC(=O)c1ccc2c(c1)c(Cc1ccc(C(=O)NS(=O)(=O)c3ccccc3C)cc1OC)cn2CC)C(F)(F)F (centres undefined)
q: Between the entries labelled 1 and 2 , which has a larger Ki value on record? Let me know the label of the one you choose.
a: 2

1. CCC(CNC(=O)c1ccc2c(c1)c(Cc1ccc(C(=O)NS(=O)(=O)c3ccccc3Br)cc1OC)cn2C)CC(F)(F)F (centres undefined)
2. COc1cc(C(=O)NS(=O)(=O)c2ccccc2Cl)ccc1Cn1ccc2ccc(C(=O)NCC(C)CC(F)(F)F)cc21 (centres undefined)
3. COc1cc(C(=O)NS(=O)(=O)c2ccccc2C)ccc1Cc1cn(C)c2ccc(C(=O)NCCCC(F)(F)F)cc12
q: List the 3 entries from lowest Ki to highest Ki value. Your task in answering is to list the labels in the requested order.
a: 1, 2, 3
(1: 2.4 nM, 2: 4.2 nM, 3: 7.5 nM)

1. CCCn1cc(Cc2ccc(C(=O)NS(=O)(=O)c3ccccc3C)cc2OC)c2cc(C(=O)NCC(C)CC(F)(F)F)ccc21 (centres undefined)
2. COc1cc(C(=O)NS(=O)(=O)c2ccccc2C)ccc1Cc1cn(C)c2ccc(C(=O)NCC3CCCC3)cc12
q: I'm curious, which of these has a smaller Ki number: 1 or 2 ? Identify your selection by its label.
a: 1
